Below, each entry is listed with its recorded melting point.

- molecule: "CCCc1nc(C=NNC(=S)SC)c[nH]1"
  melting point: "95 to 104 °C"
- molecule: "CCc1ccccc1NC=C1C(=O)N(c2ccccn2)N=C1C"
  melting point: "183 °C"
- molecule: "CCC(=O)C(CCCCCCOc1ccc(S(N)(=O)=O)cc1)C(=O)CC"
  melting point: "86 to 87 °C"
- molecule: "CCCC1(CC(=O)OCC)OCCc2c1[nH]c1c(C)cc(F)c(Br)c21 (stereo not given)"
  melting point: "137 to 138 °C"
- molecule: "CCCC[C@H](NC(=O)OC(C)(C)C)C(=O)CSCc1ccsc1"
  melting point: "43 to 45 °C"
- molecule: "COc1ccc2c(c1)nnc1nnc(C)n12"
  melting point: "259 to 261 °C"
- molecule: "O=c1cnc2cc(Cl)cc(Cl)c2[nH]1"
  melting point: "228 to 229 °C"
- molecule: "CC(C)(C)OC(=O)Cn1c2ccccc2c2c(N3CCCC3)nc(N3CCCC3)nc21"
  melting point: "131 to 133 °C"
- molecule: "Cn1c([N+](=O)[O-])cnc1COc1ccc([N+](=O)[O-])cc1C(F)(F)F"
  melting point: "153 °C"
- molecule: "CC1OC(n2cnc3c(N)nc(F)nc32)C(O)C1O (stereo not given)"
  melting point: "244 to 245 °C"
